Origin of values: the supplement of paper PMC7877785

assay method text: self-splicing fitness, log relative to wild type (ln ratio); higher = more splicing; Tetrahymena group I intron in knt gene, E. coli kanamycin selection, DiMSum; sequences stand for … in CUCUCU…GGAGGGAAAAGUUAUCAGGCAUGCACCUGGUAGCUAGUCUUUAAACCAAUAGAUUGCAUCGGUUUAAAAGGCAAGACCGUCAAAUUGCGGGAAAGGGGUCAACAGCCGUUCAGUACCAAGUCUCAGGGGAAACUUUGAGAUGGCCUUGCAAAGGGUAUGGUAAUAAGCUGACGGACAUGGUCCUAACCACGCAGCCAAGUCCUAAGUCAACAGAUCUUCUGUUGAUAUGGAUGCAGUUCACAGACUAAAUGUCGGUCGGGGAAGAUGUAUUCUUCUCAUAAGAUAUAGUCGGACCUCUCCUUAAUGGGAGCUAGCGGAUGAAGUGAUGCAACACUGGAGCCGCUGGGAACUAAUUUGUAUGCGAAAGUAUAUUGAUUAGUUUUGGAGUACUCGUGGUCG;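 also: selection with 25 µg/mL kanamycin versus none on LB agar overnight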
condition description: 30 °C
measured attribute: self-splicing fitness (ln)

[[record]]
sequence_string = "UGAGAGCAAUAUUACGUGCG"
measured_attribute = "self-splicing fitness (ln)"
result = -1.95

[[record]]
sequence_string = "UCAGAGCAAUAUUACGCUUA"
measured_attribute = "self-splicing fitness (ln)"
result = -2.91

[[record]]
sequence_string = "GGUAAGCAAUAUUACGCCGA"
measured_attribute = "self-splicing fitness (ln)"
result = -2.95

[[record]]
sequence_string = "CAGUAGCAAUAUUACGCCGU"
measured_attribute = "self-splicing fitness (ln)"
result = -2.93

[[record]]
sequence_string = "GCAGAGCAAUAUUACGGGUG"
measured_attribute = "self-splicing fitness (ln)"
result = -2.91

[[record]]
sequence_string = "AUUAAGCAAUAUUACGGUUG"
measured_attribute = "self-splicing fitness (ln)"
result = -3.08

